- Tested on: KM12 colon
- Assay Details: NCI tumour cell line growth inhibition, 48 h
I'd appreciate it if you could supply TGI values for the items below.

// below: answered compounds
Quick note, TGI for CCN1C(=O)CCCc2c1ccc(Nc1ncc(Cl)c(NC3[C@@H](C(N)=O)[C@@H]4C=C[C@H]3C4)n1)c2OC (stereo partly specified) landed at 13.9 µM

Quick note, TGI for O=C(O)C[C@@H]1[C@@H](O)[C@@H](O)CN2C(=O)c3ccccc3[C@H]12 landed at > 100 µM

Quick note, TGI for O=c1[nH]c(=O)n(C2CC(O)C(CO)O2)cc1NN=NCCCc1ccccc1 (stereo unspecified) landed at > 100 µM

Quick note, TGI for O=c1c2c3c(sc2nc2n1N=C(c1ccc(Cl)cc1)CS2)CCCC3 landed at > 100 µM

Quick note, TGI for COc1ccc(/C=C2\CCS(=O)(=O)c3ccccc3C2=O)cc1OC landed at > 100 µM

Quick note, TGI for CCn1c(SC(C)C(=O)c2c(C)n(C)n(-c3ccccc3)c2=O)nc2ccccc2c1=O (stereo unspecified) landed at > 100 µM

Quick note, TGI for O=C(NCCO)c1ccc([N+](=O)[O-])cc1 landed at > 100 µM

Quick note, TGI for NC(=O)c1ccccc1NC(=O)C(=O)Cc1nc2ccccc2[nH]c1=O landed at > 100 µM

Quick note, TGI for COc1cc(C2c3cc4c(cc3OC(Nc3ccccc3)C2C)OCO4)cc(OC)c1O (stereo unspecified) landed at 38.7 µM

Quick note, TGI for COC(=O)C1OC2(CCCC3CC32)O[C@H]1C(=O)OC (stereo partly specified) landed at > 100 µM

# per-item lookup of TGI; items listed below
1. Brc1ccc2[nH]cc(-c3nc(-c4c[nH]c5ncccc45)cs3)c2c1
2. CCCCCCCC(CC(=O)NC(CO)C(=O)NC(CO)CC(C)C)OC(=O)CC(CCCCCCC)OC(=O)CC(CCCCCCC)OC1OC(C)C(O)C(OC2OC(C)C(O)C(O)C2OC(C)=O)C1O (stereo unspecified)
3. O=C(O)c1cn(C2CC2)c2cc(N3CCN(C(=O)Nc4nc(-c5ccccc5)cs4)CC3)c(F)cc2c1=O
4. CCOC(=O)c1sc2nc(SC)nc3c2c1NCN3c1ccc(F)c(F)c1
5. Cc1cn(C2CC(N)C(C(=O)NCC(=O)O)O2)c(=O)[nH]c1=O (stereo unspecified)

Reply |
10.4 µM
10.8 µM
23.7 µM
> 86.5 µM
> 100 µM

# per-item lookup of TGI; items listed below
1. O=[N+]([O-])c1ccccc1S(=O)(=O)c1ccccc1
2. Cc1cc(-c2ccccc2)nc(Nc2nc3ccccc3o2)n1

Reply |
1: > 100 µM; 2: > 100 µM

# per-item lookup of TGI; items listed below
1. COC1=C(C)C(=O)c2c(c(CCCl)c3n2CCC3O)C1=O (stereo unspecified)
2. CCOC(=O)c1nc2ccccc2nc1Oc1ccc(C(=O)OC)cc1
3. S=C(Nc1ccc(N=Nc2ccccc2)cc1)SCc1ccccc1
4. CN(COC(=O)c1ccccc1)c1nc(N(C)COC(=O)c2ccccc2)nc(N(C)COC(=O)c2ccccc2)n1

Reply |
["6.73 µM", "> 100 µM", "30.6 µM", "> 100 µM"]

All figures here come from PubChem BioAssay (NCI).
